Numbers sourced from patent US20050282743A1.

# Assay target: T1, GST-PTPL1 PDZ domain 4 (Homo sapiens (Human)), Q12923
# T1 chain: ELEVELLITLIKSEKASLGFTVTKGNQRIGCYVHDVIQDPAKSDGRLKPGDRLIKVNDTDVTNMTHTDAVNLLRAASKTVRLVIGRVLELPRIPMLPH
# Protocol description: G' assay; note: key of the grades not given here
Classification strictly less than 2 A450 class = 1. Otherwise 0.

Record excerpt, results attached:
binder="TFAAGFNSTGLPHSTTRV (modifications not checked) [Neuroligin]" discrete_label=1
binder="ESKSFTRSTVDTMAQKTQAV (modifications not checked) [C5 Anaphylatoxin receptor]" discrete_label=1
binder="PYSELNYETSHYPASPDSWV (modifications not checked) [catenin - delta 2]" discrete_label=1

Q: Please determine if RELVDRGEVRQFTLRHWLKV (modifications not checked) [Dopamine transporter] is below 2 A450 class in terms of Classification.
Result: 0

Q: What do you get for ELLQFCRTPNPALKNGQYWV (modifications not checked) [CSPG4 (chondroitin sulfae proteoglycan 4, melanoma-associated)] ?
Result: 0

Q: Then what about the binder DSDPENEPFDEDQHTQITKV (modifications not checked) [PTEN] ?
Result: 1
